Ki by entry:
Target: Mu-type opioid receptor (Mus musculus, UniProt P42866)
Sequence (P42866 whole entry): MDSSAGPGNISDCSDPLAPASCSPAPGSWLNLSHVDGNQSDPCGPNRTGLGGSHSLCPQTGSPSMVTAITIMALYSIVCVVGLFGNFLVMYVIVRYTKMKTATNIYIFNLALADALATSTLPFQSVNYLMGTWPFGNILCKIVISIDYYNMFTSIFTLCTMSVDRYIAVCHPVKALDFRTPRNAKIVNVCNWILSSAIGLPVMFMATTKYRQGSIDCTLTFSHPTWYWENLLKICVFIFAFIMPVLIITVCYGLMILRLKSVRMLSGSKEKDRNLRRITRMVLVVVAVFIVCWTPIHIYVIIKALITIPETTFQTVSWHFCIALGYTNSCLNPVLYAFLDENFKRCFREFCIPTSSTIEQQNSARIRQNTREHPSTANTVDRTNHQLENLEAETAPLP
Experiment: Binding affinity to mouse mu opioid receptor expressed in CHO cells in presence of naltrexone incubated for 1.5 hrs by competitive radioligand binding assay
Readout label: Ki (nM)

> print(dat)
                                   structure                                 tested.on  readout.label  observed.measurement
 1  O=C(N[C@@H]1CC[C@@]2(O)[C@H]3Cc4ccc(O)c5c4[C@@]2(CCN3CC2CC2)[C@H]1O5)c1cn[nH]c1  Mu-type opioid receptor (Mus musculus, UniProt P42866)             Ki                  0.65
 2  O=C(Cc1ncc[nH]1)N[C@@H]1CC[C@@]2(O)[C@H]3Cc4ccc(O)c5c4[C@@]2(CCN3CC2CC2)[C@H]1O5  Mu-type opioid receptor (Mus musculus, UniProt P42866)             Ki                  0.48
 3  O=C(Cc1cnc[nH]1)N[C@H]1CC[C@@]2(O)[C@H]3Cc4ccc(O)c5c4[C@@]2(CCN3CC2CC2)[C@H]1O5  Mu-type opioid receptor (Mus musculus, UniProt P42866)             Ki                  1.34
 4  O=C(Cc1cn[nH]c1)N[C@@H]1CC[C@@]2(O)[C@H]3Cc4ccc(O)c5c4[C@@]2(CCN3CC2CC2)[C@H]1O5  Mu-type opioid receptor (Mus musculus, UniProt P42866)             Ki                  0.17
 5  O=C(N[C@H]1CC[C@@]2(O)[C@H]3Cc4ccc(O)c5c4[C@@]2(CCN3CC2CC2)[C@H]1O5)c1cc[nH]n1  Mu-type opioid receptor (Mus musculus, UniProt P42866)             Ki                  0.61
 6  O=C(CCc1ncc[nH]1)N[C@@H]1CC[C@@]2(O)[C@H]3Cc4ccc(O)c5c4[C@@]2(CCN3CC2CC2)[C@H]1O5  Mu-type opioid receptor (Mus musculus, UniProt P42866)             Ki                  0.57
 7  O=C(CCc1cnc[nH]1)N[C@@H]1CC[C@@]2(O)[C@H]3Cc4ccc(O)c5c4[C@@]2(CCN3CC2CC2)[C@H]1O5  Mu-type opioid receptor (Mus musculus, UniProt P42866)             Ki                   0.6
 8  O=C(Cc1cnc[nH]1)N[C@@H]1CC[C@@]2(O)[C@H]3Cc4ccc(O)c5c4[C@@]2(CCN3CC2CC2)[C@H]1O5  Mu-type opioid receptor (Mus musculus, UniProt P42866)             Ki                  0.82
 9  O=C(Cc1ncc[nH]1)N[C@H]1CC[C@@]2(O)[C@H]3Cc4ccc(O)c5c4[C@@]2(CCN3CC2CC2)[C@H]1O5  Mu-type opioid receptor (Mus musculus, UniProt P42866)             Ki                  0.83
10  O=C(Cc1cc[nH]n1)N[C@H]1CC[C@@]2(O)[C@H]3Cc4ccc(O)c5c4[C@@]2(CCN3CC2CC2)[C@H]1O5  Mu-type opioid receptor (Mus musculus, UniProt P42866)             Ki                  1.05
11  O=C(Cc1cn[nH]c1)N[C@H]1CC[C@@]2(O)[C@H]3Cc4ccc(O)c5c4[C@@]2(CCN3CC2CC2)[C@H]1O5  Mu-type opioid receptor (Mus musculus, UniProt P42866)             Ki                  0.88
12  O=C(CCc1ncc[nH]1)N[C@H]1CC[C@@]2(O)[C@H]3Cc4ccc(O)c5c4[C@@]2(CCN3CC2CC2)[C@H]1O5  Mu-type opioid receptor (Mus musculus, UniProt P42866)             Ki                  0.69
